// reported pEC50 per item
Target: GST tagged LXRalpha LBD (ligand binding domain) (Homo sapiens)
Sequence (Q13133 209-447 limits assumed): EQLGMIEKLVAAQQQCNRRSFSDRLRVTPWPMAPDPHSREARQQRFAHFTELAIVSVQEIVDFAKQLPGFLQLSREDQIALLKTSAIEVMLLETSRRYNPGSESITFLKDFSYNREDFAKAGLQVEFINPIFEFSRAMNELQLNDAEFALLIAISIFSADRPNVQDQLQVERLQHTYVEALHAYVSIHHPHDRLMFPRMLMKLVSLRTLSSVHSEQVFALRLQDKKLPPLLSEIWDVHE
Assay: LanthaScreen TR-FRET Liver X Receptor Coactivator Assay, LXR alpha-LBD
Conditions: Inflection Point (potency), co-activator recruitment, relative to reference T0901317; read-out: LXR alpha IP
Source text: […]
pEC50: −log10 of the molar value.
reported-endpoint: pEC50

>>> print(df.to_string())
                                   molecule  test_result
0  Cc1ccc(C(C)(C)C(=O)N2CCC(C3CCN(c4ccc(C(=O)N(C)C)c(Cl)c4)CC3)CC2)cc1         5.55
1  CN(C)C(=O)c1ccc(N2CCC(C3CCN(S(=O)(=O)c4ccccc4C#N)CC3)CC2)cc1Cl         4.24
2  CC(C)CC(O)(C(=O)N1CCC(C2CCN(c3ccc(C(=O)N(C)C)c(Cl)c3)CC2)CC1)C(F)(F)F (stereo not shown) [Example A-5]         6.06
3  O=C(c1ccc(N2CCC(C3CCN(C(=O)[C@](O)(c4ccccc4)C(F)(F)F)CC3)CC2)cc1Cl)N1CCC(O)C1 (stereo partly shown)         5.51
4  CN(C)C(=O)c1ccc(N2CCC(C3CCN(C(=O)C(F)(F)c4cccc(F)c4)CC3)CC2)cc1Cl         5.75
5  CN(C)C(=O)c1ccc(N2CCC(C3CCN(C(=O)OC(C)(C)C)CC3)CC2)cc1Cl         6.13
6  CCCC(O)(C(=O)N1CCC(C2CCN(c3ccc(C(=O)N(C)C)c(Cl)c3)CC2)CC1)C(F)(F)F (stereo not shown) [Example A-84]         5.86

----------
Target: GST tagged LXRbeta LBD (ligand binding domain) (Homo sapiens, UniProt P55055)
Construct: purchased Invitrogen pv4658.pps
Sequence (P55055 222-460 limits assumed): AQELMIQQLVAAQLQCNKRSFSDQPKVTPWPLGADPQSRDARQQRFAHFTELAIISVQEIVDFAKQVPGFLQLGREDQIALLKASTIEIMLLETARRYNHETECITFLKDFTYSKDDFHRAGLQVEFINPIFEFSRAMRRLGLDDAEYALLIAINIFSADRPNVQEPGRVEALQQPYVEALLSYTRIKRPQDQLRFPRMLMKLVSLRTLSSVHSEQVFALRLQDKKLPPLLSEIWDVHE
Test: LanthaScreen TR-FRET Liver X Receptor Coactivator Assay, LXR beta-LBD
Assay type: biochemical
Conditions: activity at max dose (efficacy), relative to reference T0901317; read-out: LXR beta act @ max dose (%)
reported-endpoint: Emax (%)

>>> print(df.to_string())
                                   compound  test_result
0  CN(C)C(=O)c1ccc(N2CCC(C3CCN(C(=O)C(O)(c4ccccc4)C4CC4)CC3)CC2)cc1Cl (stereo not shown)           96
1  CN(C)C(=O)c1ccc(N2CCC(C3CCN(C(=O)C(C)(C)c4cccc(F)c4)CC3)CC2)cc1Cl          112
2  Cc1ccccc1C1(C(=O)N2CCC(C3CCN(c4ccc(C(=O)N(C)C)c(Cl)c4)CC3)CC2)CCC1          118
3  COc1ccccc1C(C)(C)C(=O)N1CCC(C2CCN(c3ccc(C(=O)N(C)C)c(Cl)c3)CC2)CC1          101
4  CN(C)C(=O)c1ccc(N2CCC(C3CCN(C(=O)C(F)(F)c4ccccc4Cl)CC3)CC2)cc1Cl          131
5  COc1ccccc1C(O)(C(=O)N1CCC(C2CCN(c3ccc(C(=O)N(C)C)c(Cl)c3)CC2)CC1)C(F)(F)F (stereo not shown)          100
6  O=C(c1ccc(N2CCC(C3CCN(C(=O)[C@](O)(c4ccccc4)C(F)(F)C(F)(F)F)CC3)CC2)cc1Cl)N1CCCC1          130
